pIC50 by entry:
Biological target: CDK5/p25 (Homo sapiens, UniProt Q00535)
Sequence (Q00535 whole entry): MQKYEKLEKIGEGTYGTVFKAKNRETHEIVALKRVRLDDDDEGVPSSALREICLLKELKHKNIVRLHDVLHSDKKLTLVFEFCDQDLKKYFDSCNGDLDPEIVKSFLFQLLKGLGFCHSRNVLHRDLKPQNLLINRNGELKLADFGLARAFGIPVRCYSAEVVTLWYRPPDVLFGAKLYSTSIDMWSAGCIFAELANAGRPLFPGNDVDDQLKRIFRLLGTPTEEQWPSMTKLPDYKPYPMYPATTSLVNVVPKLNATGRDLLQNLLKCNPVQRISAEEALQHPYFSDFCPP
Sequence (Q15078 99-307 partner limits assumed): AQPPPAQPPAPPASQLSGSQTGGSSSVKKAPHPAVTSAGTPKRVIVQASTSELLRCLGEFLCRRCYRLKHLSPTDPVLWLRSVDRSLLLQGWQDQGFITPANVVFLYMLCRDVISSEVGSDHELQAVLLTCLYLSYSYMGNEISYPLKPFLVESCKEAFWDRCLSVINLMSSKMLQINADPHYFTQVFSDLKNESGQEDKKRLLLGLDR
Experiment: CDK5 mobility shift assay (enzymatic activity of CDK5/p25)
Assay type: biochemical
Settings: 0.154 nM CDK5/p25, FL peptide 29, 60 min at room temperature; read-out: CDK5 IC50
pIC50: −log10 of the molar value.
measuredProperty: pIC50

| compound | observedMeasurement |
| --- | --- |
| CN1CCC(C(C)(O)c2ccc3cnc(Nc4ccc(-c5cccc(=O)n5C)cc4F)cc3n2)CC1 (stereo not shown) | > 8.00 |
| CN1CCN(S(=O)(=O)c2ccc3cnc(Nc4ccc(-n5ccc(CO)n5)cc4F)cc3n2)CC1 | 6.00 to 7.00 |
| CCC(O)(c1ccc2cnc(Nc3ccc(-n4cccn4)cc3F)cc2n1)C1CCN(C)CC1 (stereo not shown) [Compound 389] | < 6.00 |
| CC(c1ccc2cnc(Nc3ccc(-c4cccnc4)cc3F)cc2n1)C1CCN(C)CC1 (stereo not shown) [Compound 319] | > 8.00 |
| O=C(c1ccc2cnc(Nc3ccc(-n4cccn4)cc3F)cc2n1)C1CCNCC1 | > 8.00 |
| CN1CCC(N(Cc2cn[nH]c2)c2ccc3cnc(Nc4ccc(-n5ccc(CO)n5)cc4F)cc3n2)CC1 | 7.00 to 8.00 |
| OCc1ccn(-c2ccc(Nc3cc4nc(C(CO)C5CCNCC5)ccc4cn3)c(F)c2)n1 (stereo not shown) | 6.00 to 7.00 |

---

Molecular target: CDK5/p25 (Homo sapiens, UniProt Q00535)
Assay: CDK5 mobility shift assay (enzymatic activity of CDK5/p25)
Type: biochemical
Conditions: 0.154 nM CDK5/p25, FL peptide 29, 60 min at room temperature; read-out: CDK5 IC50

| compound | IC50 |
| --- | --- |
| CCN1CCC(S(=O)(=O)c2ccc3cnc(Nc4ccc(-n5cccn5)cc4F)cc3n2)CC1 | < 10 nM |
| CN1CCC(C(O)c2ccc3cnc(Nc4ccc(-n5cccn5)cc4F)cc3n2)CC1 (single isomer, unassigned) [Compound 175] | < 10 nM |
| CCc1ccc(F)c(Nc2cc3nc(S(=O)(=O)C4CCN(C)CC4)ccc3cn2)c1 | < 10 nM |
| COC(=O)c1cnn(-c2ccc(Nc3cc4nc([C@](C)(O)C5CCN(C)CC5)ccc4cn3)c(F)c2)c1 | < 10 nM |
| COC(c1ccc2cnc(Nc3ccc(-n4cccn4)cc3F)cc2n1)C1CCN(C)CC1 (single isomer, unassigned) [Compound 391] | 100 to 1000 nM |
| CN1CCC([C@@](C)(O)c2ccc3cnc(Nc4ccc(-c5cccc(C(N)=O)c5)cc4F)cc3n2)CC1 | < 10 nM |
| COc1cc(-c2ccc(Nc3cc4nc(S(=O)(=O)C5CCN(CC6COC6)CC5)ccc4cn3)c(F)c2)ccn1 | < 10 nM |
| CC(c1ccc2cnc(Nc3ccc(-c4noc(=O)[nH]4)cc3F)cc2n1)C1CCN(C)CC1 (racemic) | < 10 nM |
| CN1CCC(C(C)(O)c2ccc3cnc(Nc4ccc(-n5cccn5)cc4F)cc3n2)CC1 (single isomer, unassigned) [Compound 205] | 100 to 1000 nM |
| CC(C)c1ccc(Nc2cc3nc(S(=O)(=O)C4CCN(C)CC4)ccc3cn2)cc1 | < 10 nM |
| N#CCN(c1ccc2cnc(Nc3ccc(-n4ccc(CO)n4)cc3F)cc2n1)C1CCNCC1 | 100 to 1000 nM |

---

Molecular target: CDK5/p25 (Homo sapiens, UniProt Q00535)
Experiment: CDK5 mobility shift assay (enzymatic activity of CDK5/p25)
Format: biochemical
Details: 0.154 nM CDK5/p25, FL peptide 29, 60 min at room temperature; read-out: CDK5 IC50
pIC50: −log10 of the molar value.
Let's look at some compounds and their measured pIC50.

| compound | pIC50 |
| --- | --- |
| [O-][S@+](c1ccc2cnc(Nc3ccc(-n4cccn4)cc3F)cc2n1)C1CCNCC1 [Compound 117] | 6.00 to 7.00 |
| CN1CCC(S(=O)(=O)c2ccc3cnc(Nc4ccc(N5CCCC5)cc4)cc3n2)CC1 [Compound 301] | > 8.00 |
| CN1CCC(S(=O)(=O)c2ccc3cnc(Nc4cccc(CN5CCOCC5)c4)cc3n2)CC1 [Compound 276] | > 8.00 |
| CN1CCC(C(C)(O)c2ccc3cnc(Nc4ccc(S(C)(=O)=O)cc4)cc3n2)CC1 (stereo not drawn) [Compound 370] | > 8.00 |
| O=S(=O)(c1ccc2cnc(Nc3ccc(-n4ccc(CO)n4)cc3F)cc2n1)C1CCN(CC(O)CO)CC1 (stereo not drawn) [Compound 253] | 7.00 to 8.00 |
| CN1CCC(S(=O)(=O)c2ccc3cnc(Nc4ccc(N(C)C)cc4)cc3n2)CC1 [Compound 306] | > 8.00 |
| CN1CCC(/C(=N\O)c2ccc3cnc(Nc4ccc(-n5cccn5)cc4F)cc3n2)CC1 [Compound 375] | > 8.00 |
| O=S(=O)(Cc1ccc2cnc(Nc3ccc(-n4ccc(CO)n4)cc3F)cc2n1)C1CCNCC1 [Compound 207] | 6.00 to 7.00 |
| Cc1ccc(F)c(Nc2cc3nc(C(O)(C4CCN(C)CC4)C(F)(F)F)ccc3cn2)c1 (stereo not drawn) [Compound 394] | > 8.00 |
| Fc1cc(-n2cccn2)ccc1Nc1cc2nc(CC3CCNCC3)ccc2cn1 [Compound 124] | 7.00 to 8.00 |
| NC(c1ccc2cnc(Nc3ccc(-n4cccn4)cc3F)cc2n1)C1CCNCC1 (stereo not drawn) [Compound 165] | 7.00 to 8.00 |
| O=C(O)[C@@H]1CNCC[C@H]1Nc1ccc2cnc(Nc3ccc(-n4ccc(CO)n4)cc3F)cc2n1 [Compound 114] | < 6.00 |

---

Biological target: CDK2/CycA2 (Homo sapiens)
Experiment: CDK2 mobility shift assay (enzymatic activity of CDK2/CycA2)
Format: biochemical
Settings: 1.25 nM CDK2/CycA2, 37 μM ATP, FL Peptide 18, 120 min at room temperature; read-out: CDK2 IC50
pIC50: −log10 of the molar value.

| molecule | pIC50 |
| --- | --- |
| COc1cc(-c2ccc(Nc3cc4nc(C(C)(O)C5CCN(C)CC5)ccc4cn3)c(F)c2)ccn1 (stereo not drawn) | < 6.00 |
| CC(c1ccc2cnc(Nc3ccc(-n4cccn4)cc3F)cc2n1)C1CCN(C)CC1 (stereo not drawn) | 6.00 to 7.00 |
| Fc1cc(-n2cccn2)ccc1Nc1cc2nc(SC3CCNCC3)ccc2cn1 | 7.00 to 8.00 |

---

Listing of entries alongside the reported pIC50.
Molecular target: CDK2/CycA2 (Homo sapiens, UniProt P24941)
Experiment: CDK2 mobility shift assay (enzymatic activity of CDK2/CycA2)
Type: biochemical
Conditions: 1.25 nM CDK2/CycA2, 37 μM ATP, FL Peptide 18, 120 min at room temperature; read-out: CDK2 IC50
pIC50: −log10 of the molar value.
measuredProperty: pIC50

| compound | measuredProperty | observedMeasurement |
| --- | --- | --- |
| CC(c1ccc2cnc(Nc3ccc(-n4ccc(CO)n4)cc3F)cc2n1)C1CCN(C)CC1 (single isomer, unassigned) [Compound 188] | pIC50 | 6.00 to 7.00 |
| OCc1ccn(-c2ccc(Nc3cc4nc(NC5CCNCC5)ccc4cn3)c(F)c2)n1 | pIC50 | 6.00 to 7.00 |
| CN1CCC(C(=O)c2ccc3cnc(Nc4ccc(-n5cccn5)cc4F)cc3n2)CC1 | pIC50 | > 8.00 |
| CN1CCC([C@@](C)(O)c2ccc3cnc(Nc4ccccc4)cc3n2)CC1 | pIC50 | 7.00 to 8.00 |
| CN1CCC(S(=O)(=O)c2ccc3cnc(Nc4ccc(N5CCOC5=O)cc4)cc3n2)CC1 | pIC50 | 7.00 to 8.00 |
| CC(c1ccc2cnc(Nc3ccc(-c4cccnc4)cc3F)cc2n1)C1CCN(C)CC1 (centres unmarked) [Compound 314] | pIC50 | < 6.00 |
| CC(C)c1ccc(Nc2cc3nc(S(=O)(=O)C4CCN(C)CC4)ccc3cn2)cc1 | pIC50 | 7.00 to 8.00 |
| COC(=O)c1cnn(-c2ccc(Nc3cc4nc([C@](C)(O)C5CCN(C)CC5)ccc4cn3)c(F)c2)c1 | pIC50 | 7.00 to 8.00 |
| OCCN(c1ccc2cnc(Nc3ccc(-n4ccc(CO)n4)cc3F)cc2n1)C1CCNCC1 | pIC50 | 6.00 to 7.00 |
| CN1CCC(C(C)(O)c2ccc3cnc(Nc4cccc(N5CCCC5=O)c4)cc3n2)CC1 (centres unmarked) | pIC50 | 7.00 to 8.00 |
| OCc1ccn(-c2ccc(Nc3cc4nc(C5(C6CCNCC6)CC5)ccc4cn3)c(F)c2)n1 | pIC50 | < 6.00 |

---

Biological target: CDK2/CycA2 (Homo sapiens)
Test: CDK2 mobility shift assay (enzymatic activity of CDK2/CycA2)
Format: biochemical
Conditions: 1.25 nM CDK2/CycA2, 37 μM ATP, FL Peptide 18, 120 min at room temperature; read-out: CDK2 IC50
pIC50: −log10 of the molar value.
measuredProperty: pIC50

| compound | observedMeasurement |
| --- | --- |
| COC(=O)c1ccn(-c2ccc(Nc3cc4nc(S(=O)(=O)C5CCN(C)CC5)ccc4cn3)c(F)c2)n1 | 6.00 to 7.00 |
| N#CCN(c1ccc2cnc(Nc3ccc(-n4ccc(CO)n4)cc3F)cc2n1)C1CCNCC1 | < 6.00 |
| CCC(O)(c1ccc2cnc(Nc3ccc(-n4cccn4)cc3F)cc2n1)C1CCN(C)CC1 (stereo not shown) [Compound 392] | 6.00 to 7.00 |
| Cc1cccc(Nc2cc3nc(S(=O)(=O)C4CCN(C)CC4)ccc3cn2)c1 | 7.00 to 8.00 |
| NC1CCN(C(=O)c2ccc3cnc(Nc4ccc(-n5cccn5)cc4F)cc3n2)C1 (stereo not shown) | < 6.00 |
| OCCN1CCC(C(O)c2ccc3cnc(Nc4ccc(-n5ccc(CO)n5)cc4F)cc3n2)CC1 (single isomer, unassigned) [Compound 252] | 6.00 to 7.00 |
| CN[C@H]1CC[C@@H](N(CC(=O)O)c2ccc3cnc(Nc4ccc(-n5cccn5)cc4F)cc3n2)CC1 | < 6.00 |
